- System: Staphylococcus aureus (Sa)
- protocol-text: Minimum inhibitory concentration, nutrient agar, Staphylococcus aureus
- condition-info: 48 h, pH 8.2, read-out: Minimum inhibitory Concentration, Sa
endpoint-name: MIC (µg/mL)

                         record_smiles  unit_abbrev  censoring_operator  endpoint_result
0  O=c1c2sc3nsnc3sc=2c(=O)n1CCc1ccccc1        µg/mL                   >              500
1      CCCCCCn1c(=O)c2sc3nsnc3sc=2c1=O        µg/mL                   <               10
2         O=c1[nH]c(=O)c2sc3nsnc3sc1=2        µg/mL                   >              500
3           Cn1c(=O)c2sc3nsnc3sc=2c1=O        µg/mL                   =              250
4         CCCn1c(=O)c2sc3nsnc3sc=2c1=O        µg/mL                   =               50
5          CCn1c(=O)c2sc3nsnc3sc=2c1=O        µg/mL                   =              250
6   O=c1c2sc3nsnc3sc=2c(=O)n1-c1ccccc1        µg/mL                   =               50

Hello, the source for this data is patent US5633219A, in case you need it.
